Target: UniProt P35372
Assay: biochemical
Settings: class symbols; read-out: GTP Activity
pEC50: −log10 of the molar value.
ASSAY_METRIC: pEC50

compound=CCNC1=C(c2nc3ccccc3[nH]2)C(=O)[C@@H](CC)N1c1cc(OC)cc(OC)c1 assay_metric=pEC50 recorded_value="6.00 to 7.00"
compound=[2H]C([2H])([2H])Oc1cc(OC([2H])([2H])[2H])cc(N2C(NC)=C(c3nc4ccccc4[nH]3)C(=O)C2(C)C)c1 assay_metric=pEC50 recorded_value="> 7.00"
compound=CNC1=C(c2nc3ccccc3[nH]2)C(=O)C2(CCC2)N1c1cc(OC)cc(OC)c1 assay_metric=pEC50 recorded_value="> 7.00"
compound="COCCC1C(=O)C(c2nc3ccccc3[nH]2)=C(N)N1c1cc(OC)cc(OC)c1 (stereo not drawn)" assay_metric=pEC50 recorded_value="6.00 to 7.00"
compound="COc1cc(OC)cc(N2C(N)=C(c3nc4ccccc4[nH]3)C(=O)C2(C)OC)c1 (stereo not drawn)" assay_metric=pEC50 recorded_value="5.00 to 6.00"
compound="COc1cc(OC)cc(N2C(N)=C(c3nc4ccccc4[nH]3)C(=O)C23CCOC3)c1 (stereo not drawn)" assay_metric=pEC50 recorded_value="6.00 to 7.00"

---

Molecular target: mu-opioid receptor (Homo sapiens, UniProt P35372)
Sequence (P35372 whole entry, species assumed): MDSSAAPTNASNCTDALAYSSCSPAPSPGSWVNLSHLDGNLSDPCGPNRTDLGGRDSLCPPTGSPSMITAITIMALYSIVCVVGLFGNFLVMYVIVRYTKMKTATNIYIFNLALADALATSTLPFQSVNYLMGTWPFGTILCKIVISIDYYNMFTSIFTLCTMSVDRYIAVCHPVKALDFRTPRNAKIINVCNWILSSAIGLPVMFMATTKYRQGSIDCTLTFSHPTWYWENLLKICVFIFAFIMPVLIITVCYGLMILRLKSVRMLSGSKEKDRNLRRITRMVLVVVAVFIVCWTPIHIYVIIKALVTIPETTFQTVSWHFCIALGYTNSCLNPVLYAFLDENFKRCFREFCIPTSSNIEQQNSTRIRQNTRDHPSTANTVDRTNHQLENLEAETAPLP
Assay: biochemical
Details: […]; class symbol combines EC50 and efficacy; read-out: GTP Activity
ASSAY_METRIC: EC50

compound="CNC1=C(c2nc3ccccc3[nH]2)C(=O)C(CCNC(C)=O)N1c1cc(OC)cc(OC)c1 (centres unmarked)" assay_metric=EC50 recorded_value="< 0.1 µM"
compound=CNC1=C(c2nc3ccccc3[nH]2)C(=O)[C@@]2(CCCOC2)N1c1cc(OC)cc(OC)c1 assay_metric=EC50 recorded_value="0.1 to 1 µM"
compound="COc1cc(OC)cc(N2C(N)=C(c3nc4ccccc4[nH]3)C(=O)C2CCCCO)c1 (centres unmarked)" assay_metric=EC50 recorded_value="0.1 to 1 µM"
compound="CCC(=O)NCC1(C)C(=O)C(c2nc3ccccc3[nH]2)=C(NC)N1c1cc(OC)cc(OC)c1 (centres unmarked)" assay_metric=EC50 recorded_value="< 0.1 µM"
compound=CNC1=C(c2nc3ccccc3[nH]2)C(=O)[C@@](C)(CNC(C)=O)N1c1cc(OC)cc(OC)c1 assay_metric=EC50 recorded_value="< 0.1 µM"
compound="COc1cc(OC)cc(N2C(N)=C(c3nc4ccccc4[nH]3)C(=O)C23CCCN(C(C)=O)C3)c1 (centres unmarked)" assay_metric=EC50 recorded_value="1 to 10 µM"
compound="CNC1=C(c2nc3ccccc3[nH]2)C(=O)C(CCN)N1c1cc(OC)cc(OC)c1 (centres unmarked)" assay_metric=EC50 recorded_value="0.1 to 1 µM"
compound=CNC1=C(c2nc3ccccc3[nH]2)C(=O)[C@@](C)(CCOC)N1c1cc(OC)cc(OC)c1 assay_metric=EC50 recorded_value="< 0.1 µM"
compound="COc1cc(OC)cc(N2C(N)=C(c3nc4ccccc4[nH]3)C(=O)C2CCOc2ccccc2)c1 (centres unmarked)" assay_metric=EC50 recorded_value="1 to 10 µM"
compound="COc1cc(OC)cc(N2C(N)=C(c3nc4ccccc4[nH]3)C(=O)C2CCc2ccccc2)c1 (centres unmarked)" assay_metric=EC50 recorded_value="1 to 10 µM"
compound="COc1cc(OC)cc(N2C(N)=C(c3nc4ccccc4[nH]3)C(=O)C23CCCNC3)c1 (centres unmarked)" assay_metric=EC50 recorded_value="1 to 10 µM"
compound="CNC1=C(c2nc3ccccc3[nH]2)C(=O)C(C(C)=O)N1c1cc(OC)cc(OC)c1 (centres unmarked)" assay_metric=EC50 recorded_value="< 0.1 µM"
compound="CNC1=C(c2nc3ccccc3[nH]2)C(=O)C(CNC(C)=O)N1c1cc(OC)cc(OC)c1 (centres unmarked)" assay_metric=EC50 recorded_value="< 0.1 µM"
compound=COc1cc(OC)cc(N2C(N)=C(c3nc4ccccc4[nH]3)C(=O)C23CN(S(C)(=O)=O)C3)c1 assay_metric=EC50 recorded_value="0.1 to 1 µM"
compound=CNC1=C(c2nc3ccccc3[nH]2)C(=O)[C@@](C)(COC)N1c1cc(OC)cc(OC)c1 assay_metric=EC50 recorded_value="< 0.1 µM"
compound="CNC1=C(c2nc3ccccc3[nH]2)C(=O)C2(CCOC2)N1c1cc(OC)cc(OC)c1 (centres unmarked)" assay_metric=EC50 recorded_value="< 0.1 µM"
compound=CNC1=C(c2nc3ccccc3[nH]2)C(=O)C2(CCOCC2)N1c1cc(OC)cc(OC)c1 assay_metric=EC50 recorded_value="0.1 to 1 µM"
compound="COc1cc(OC)cc(N2C(N)=C(c3nc4ccccc4[nH]3)C(=O)C2CCCO)c1 (centres unmarked)" assay_metric=EC50 recorded_value="0.1 to 1 µM"
compound="CNC1=C(c2nc3ccccc3[nH]2)C(=O)C2(CCC(=O)C2)N1c1cc(OC)cc(OC)c1 (centres unmarked)" assay_metric=EC50 recorded_value="< 0.1 µM"
compound="CCC(=O)NCCC1C(=O)C(c2nc3ccccc3[nH]2)=C(N)N1c1cc(OC)cc(OC)c1 (centres unmarked)" assay_metric=EC50 recorded_value="< 0.1 µM"
